Target: rat NMUR2 (Rattus norvegicus)
Sequence (Q9ESQ4 whole entry): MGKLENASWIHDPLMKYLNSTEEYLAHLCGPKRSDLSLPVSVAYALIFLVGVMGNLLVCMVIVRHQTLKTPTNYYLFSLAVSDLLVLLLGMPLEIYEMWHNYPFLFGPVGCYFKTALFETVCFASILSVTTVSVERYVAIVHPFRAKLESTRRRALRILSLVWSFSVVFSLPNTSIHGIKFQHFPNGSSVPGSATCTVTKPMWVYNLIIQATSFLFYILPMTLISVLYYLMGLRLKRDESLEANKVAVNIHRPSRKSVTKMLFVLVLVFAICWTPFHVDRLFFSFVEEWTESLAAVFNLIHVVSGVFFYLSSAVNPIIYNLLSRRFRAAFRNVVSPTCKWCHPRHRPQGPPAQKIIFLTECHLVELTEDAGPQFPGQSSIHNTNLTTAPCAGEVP
Assay: FLIPR calcium mobilization assay, rat NMUR2
Format: cell-based
Parameters: expressed in transfected cells; host or cells: FLP-In CHO or HEK-293 FLP-In cells (pcDNA5)
Settings: maximum response at 1 μM compared to hNMU-25; rat NMUR2
Procedure: […] After a 90 minute incubation at room-temperature, cell plates were loaded onto a FLIPR (Molecular Devices) to monitor cellular fluorescence (excitation=488 nm; emission=540 nm) before and after compound/peptide addition. […] The response after peptide addition was taken as the maximum fluorescence units minus the fluorescence immediately prior to stimulation for each well. EC50 values were calculated using GraphPad Prism (San Diego, Calif.) software. […]
No end group written: not given here. *: point of attachment. Palmitoyl = CCCCCCCCCCCCCCCC(=O)*
Documented % Activity across a set of substances
endpoint: % Activity (%)

INSERT INTO results (substance, uom, quantitativeresult) VALUES
  ('GYFLFRPRN-NH2 [NMU3]', '%', 100),
  ('Pam-C2FRVDEEFQSPFASQSRGYFLFRPRN-CONH2 ({Palmitoyl-C(PEG 40 kDa)}-FRVDEEFQSPFASQSRGYFLFRPRN-NH2) [NMU25, Pam = palmitoyl; C2 = Cys(PEG)240 kDa]', '%', 96.4),
  ('Ac-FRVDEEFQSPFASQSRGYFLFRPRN-NH2 [NMU2]', '%', 100),
  ('Ac-FRVDEEFQSPFASQSRPYFLFRPRN-NH2 [NMU5]', '%', 100);
